# System: intracellular hCE2 (Homo sapiens, UniProt O00748)
# Construct: endogenous in cells; host or cells: HepG2
# Sequence (O00748 27-559): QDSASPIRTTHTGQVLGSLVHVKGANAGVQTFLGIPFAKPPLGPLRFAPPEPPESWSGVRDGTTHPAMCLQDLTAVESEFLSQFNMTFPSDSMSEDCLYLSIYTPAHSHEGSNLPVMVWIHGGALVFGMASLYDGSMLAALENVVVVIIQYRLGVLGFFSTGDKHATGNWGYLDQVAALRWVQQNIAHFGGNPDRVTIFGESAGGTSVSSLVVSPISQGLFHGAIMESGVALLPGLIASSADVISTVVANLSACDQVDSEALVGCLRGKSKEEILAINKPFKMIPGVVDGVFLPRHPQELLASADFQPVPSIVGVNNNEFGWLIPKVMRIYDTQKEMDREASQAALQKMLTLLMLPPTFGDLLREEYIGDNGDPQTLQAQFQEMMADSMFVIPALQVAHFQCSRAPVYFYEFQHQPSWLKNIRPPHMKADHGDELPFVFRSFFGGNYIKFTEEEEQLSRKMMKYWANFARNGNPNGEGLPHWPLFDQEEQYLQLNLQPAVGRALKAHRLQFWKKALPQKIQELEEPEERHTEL
# Measurement Protocol: Inhibition of intracellular hCE2 in living HepG2 cells (NCEN hydrolysis, fluorescence imaging)
# Type: cell-based
# Experimental Conditions: HepG2 cells, NCEN 10 μM substrate; read-out: IC50 against intracellular hCE2 in living HepG2 cells
Measure: pIC50
The quantity pIC50 is defined as the negative base-10 logarithm of the molar concentration.

Enquiry: Name the recorded pIC50 for COc1cc(COc2cc(-c3cc4ccc(OC)c(OC)c4c4[n+]3C(OC)CO4)ccc2OC)cc(OC)c1 (stereo not shown) [Compound 23o] .
Return: 5.64

These measurements were taken from paper PMC9074662.
